Record form. Attribute: yeast fitness. Fill in for each entry.
B1: tRNA (parent)
chain: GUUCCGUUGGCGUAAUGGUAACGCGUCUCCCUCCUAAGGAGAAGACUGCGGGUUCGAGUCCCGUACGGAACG

Variants of: B1
Assay: yeast fitness relative to wild type (ratio to wild type); higher = fitter; tRNA-Arg(CCU), competitive growth, 37 C, YPD
Variants at the floor of the assay were thinned out.

Here is how some variants turned out for yeast fitness.
A21U C27U G44A : ≤ 0.5
U2A U3A U7A A57G : ≤ 0.5
U13C C22G C27A G51C : ≤ 0.5
C29G A36G A65C : ≤ 0.5
U16C U47A G52A : ≤ 0.5
U8C C11A A20U C66U : ≤ 0.5

Need yeast fitness for each of these variants.
1. C34U C61G A65C C66G
2. G9C C34U A43U C55A A57C
3. C5G C29G U32A A37U
4. C11A C46U A57C C66A
5. A15C A21C C34U A37U
6. U16C G18A C24G A45U U59G G68C

1. ≤ 0.5
2. ≤ 0.5
3. ≤ 0.5
4. ≤ 0.5
5. ≤ 0.5
6. 0.537
